# protocol.notes: Cytotoxicity against human A549 cells assessed as cell survival at 0.08 uM/l incubated for 24 hrs by MTT assay relative to control
# Type: cell-based
# condition.notes: read-out: Activity
The entries below come with measured viability at 24 h, 0.08 µM values attached.

| compound | viability at 24 h, 0.08 µM (%) |
| --- | --- |
| O=C(NC(Cn1ccnc1)C(=O)c1ccccc1F)c1ccc(-c2ccccc2)cc1 (stereo not given) | 100 |
| O=C(NC(Cn1ccnc1)C(=O)c1cccc(Cl)c1)c1ccc(-c2ccccc2)cc1 (stereo not given) | 100 |
| OC(Cn1cncn1)(Cn1cncn1)c1ccc(F)cc1F | 100 |
| O=C(NC(Cn1ccnc1)C(=O)c1ccc(F)cc1)c1ccc(-c2ccccc2)cc1F (stereo not given) | 100 |
| Cc1ccc(C(=O)C(Cn2ccnc2)NC(=O)c2ccc(-c3ccccc3)c(F)c2)cc1 (stereo not given) | 100 |

----------
# measured.on: Lanosterol 14-alpha demethylase (Candida albicans (strain SC5314 / ATCC MYA-2876) (Yeast))
# Sequence (P10613 whole entry): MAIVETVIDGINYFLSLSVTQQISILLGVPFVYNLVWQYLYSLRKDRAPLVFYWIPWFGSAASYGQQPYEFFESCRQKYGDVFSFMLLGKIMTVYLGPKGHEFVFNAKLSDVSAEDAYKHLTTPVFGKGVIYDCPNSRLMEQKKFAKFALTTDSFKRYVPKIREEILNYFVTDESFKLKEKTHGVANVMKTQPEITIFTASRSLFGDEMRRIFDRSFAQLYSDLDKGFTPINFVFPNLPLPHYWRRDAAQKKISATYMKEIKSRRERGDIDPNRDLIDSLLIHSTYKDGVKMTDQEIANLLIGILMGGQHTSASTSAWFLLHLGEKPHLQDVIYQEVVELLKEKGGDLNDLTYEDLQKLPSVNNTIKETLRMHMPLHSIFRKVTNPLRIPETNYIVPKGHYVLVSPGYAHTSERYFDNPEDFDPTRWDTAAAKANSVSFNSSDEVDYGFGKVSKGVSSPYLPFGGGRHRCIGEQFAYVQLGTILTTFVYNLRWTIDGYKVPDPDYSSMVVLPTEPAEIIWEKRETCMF
# protocol.notes: Inhibition of Candida albicans CYP51 assessed as increase in sterol level at 0.25 ug/ml incubated for 18 hrs by GC/MS analysis relative to control
# Set-up: scale not given: the % may be the effect or the level left
quantity.name: Activity

| structure.string | quantity.name | result |
| --- | --- | --- |
| OC(Cn1cncn1)(Cn1cncn1)c1ccc(F)cc1F | Activity | 1.54 to 5.07% |

----------
# Test system: Candida tropicalis
# protocol.notes: Antifungal activity against Candida tropicalis GIM 2.183 assessed as reduction in fungal growth incubated for 24 hrs by serial dilution method
# Assay type: functional
# condition.notes: GIM 2.183, 24 h
quantity.name: MIC (µg/mL)

| compound | inequality.operator | result |
| --- | --- | --- |
| Cc1ccccc1-c1ccc(C(=O)NC(Cn2ccnc2)C(=O)c2ccccc2)cc1 (stereo unspecified) | > | 16 |
| O=C(NC(Cn1ccnc1)C(=O)c1ccc(Cl)cc1)c1ccc(-c2ccccc2)cc1 (stereo unspecified) | = | 0.06 |
| O=C(NC(Cn1ccnc1)C(=O)c1ccccc1)c1ccc(-c2ccccc2Cl)cc1 (stereo unspecified) | > | 16 |
| O=C(NC(Cn1cncn1)C(=O)c1ccccc1)c1ccc(-c2ccccc2)cc1 (stereo unspecified) | = | 1 |
| O=C(NC(Cn1ccnc1)C(=O)c1ccccc1)c1ccc(-c2ccccc2)cc1F (stereo unspecified) | = | 0.06 |
| O=C(NC(Cn1ccnc1)C(=O)c1cccc(Cl)c1)c1ccc(-c2ccccc2)cc1F (stereo unspecified) | = | 0.03 |

----------
The entries below come with measured viability at 24 h, 10 µM values attached.
# protocol.notes: Cytotoxicity against human A549 cells assessed as cell survival at 10 uM/l incubated for 24 hrs by MTT assay relative to control
# Format: cell-based
# condition.notes: read-out: Activity
quantity.name: viability at 24 h, 10 µM (%)

| compound | quantity.name | readout.unit | result |
| --- | --- | --- | --- |
| Cc1ccc(C(=O)C(Cn2ccnc2)NC(=O)c2ccc(-c3ccccc3)c(F)c2)cc1 (stereo not given) | viability at 24 h, 10 µM | % | 92.5 |
| O=C(NC(Cn1ccnc1)C(=O)c1cccc(Cl)c1)c1ccc(-c2ccccc2)cc1 (stereo not given) | viability at 24 h, 10 µM | % | 96.3 |
| O=C(NC(Cn1ccnc1)C(=O)c1ccccc1F)c1ccc(-c2ccccc2)cc1 (stereo not given) | viability at 24 h, 10 µM | % | 100 |
| O=C(NC(Cn1ccnc1)C(=O)c1ccc(F)cc1)c1ccc(-c2ccccc2)cc1F (stereo not given) | viability at 24 h, 10 µM | % | 86.8 |
| OC(Cn1cncn1)(Cn1cncn1)c1ccc(F)cc1F [FLUCONAZOLE] | viability at 24 h, 10 µM | % | 95.3 |
